Where do the numbers come from? From paper PMC5508548.

Please respond with reported CLHEP, rat for every item in the list.
- Assay details: In vitro clearance, rat
- Type: in vitro ADME
- Assay context: in vitro predicted, rat; well-stirred equation without fuplasma/fumic terms
Give bare numbers, in mL/min/kg.

The cases that follow already have their CLHEP, rat on record.
IN: Would you kindly share the measured CLHEP, rat for Cc1nnc2sc(C(=O)NCc3ccc(-c4cccnc4F)cc3)c(N)c2c1C [8p] ?
OUT: 46.0

IN: Would you kindly share the measured CLHEP, rat for Cc1nnc2sc(C(=O)NCc3ccc(-c4ccncc4)cc3)c(N)c2c1C [8f] ?
OUT: 59.9

IN: Would you kindly share the measured CLHEP, rat for Cc1nnc2sc(C(=O)NCc3ccc(-c4ccnc(F)c4)cc3)c(N)c2c1C [8k] ?
OUT: 31.5

Kindly consider the entry below.
IN: Would you kindly share the measured CLHEP, rat for Cc1nnc2sc(C(=O)NCc3ccc(-c4ccc(F)nc4)cc3)c(N)c2c1C [8m] ?
OUT: 37.7

* * *

- System: CYP450s (panel)
- Assay details: CYP450 inhibition profile
- Assay type: in vitro ADME
Reported metric: IC50

IN: Would you kindly share the measured IC50 for Cc1nnc2sc(C(=O)NCc3ccc(-c4ccncc4)cc3)c(N)c2c1C [8f] ?
OUT: < 10 µM

Kindly consider the entry below.
IN: Would you kindly share the measured IC50 for Cc1nnc2sc(C(=O)NCc3ccc(-c4cccnc4F)cc3)c(N)c2c1C [8p] ?
OUT: ≥ 11 µM

* * *

- Tested on: CYP1A2, CYP2B6, CYP3A4
- Assay details: CYP induction in cryopreserved human hepatocytes
- Assay type: in vitro ADME
- Assay context: human
Reported metric: EC50 at 48 h

IN: Would you kindly share the measured EC50 at 48 h for Cc1nnc2sc(C(=O)NCc3ccc(-c4cccnc4F)cc3)c(N)c2c1C ?
OUT: > 50 µM

* * *

- Assay details: IV pharmacokinetics in SD rat
- Assay type: in vivo
- Assay context: Sprague-Dawley, plasma
Please respond with reported clearance for every item in the list.

The cases that follow already have their clearance on record.
IN: Would you kindly share the measured clearance for Cc1nnc2sc(C(=O)NCc3ccc(-c4ccnc(F)c4)cc3)c(N)c2c1C [8k] ?
OUT: 3.6 mL/min/kg

IN: Would you kindly share the measured clearance for Cc1nnc2sc(C(=O)NCc3ccc(-c4cccnc4F)cc3)c(N)c2c1C [8p] ?
OUT: 1.6 mL/min/kg

IN: Would you kindly share the measured clearance for Cc1nnc2sc(C(=O)NCc3ccc(-c4ccc(F)nc4)cc3)c(N)c2c1C [8m] ?
OUT: 1.7 mL/min/kg

Kindly consider the entry below.
IN: Would you kindly share the measured clearance for Cc1nnc2sc(C(=O)NCc3ccc(-c4ccncc4)cc3)c(N)c2c1C [8f] ?
OUT: 9 mL/min/kg

* * *

Please respond with reported CLint scaled for every item in the list.
- Assay details: In vitro clearance, human
- Assay type: in vitro ADME
- Assay context: liver microsomes
Answers are plain numbers, in mL/min/kg.

The cases that follow already have their CLint scaled on record.
IN: Would you kindly share the measured CLint scaled for Cc1nnc2sc(C(=O)NCc3ccc(-c4cccnc4F)cc3)c(N)c2c1C ?
OUT: 19.2

IN: Would you kindly share the measured CLint scaled for Cc1nnc2sc(C(=O)NCc3ccc(-c4ccnc(F)c4)cc3)c(N)c2c1C ?
OUT: 19.6

IN: Would you kindly share the measured CLint scaled for Cc1nnc2sc(C(=O)NCc3ccc(-c4ccc(F)nc4)cc3)c(N)c2c1C ?
OUT: 20.2

***
IN: Would you kindly share the measured CLint scaled for Cc1nnc2sc(C(=O)NCc3ccc(-c4ccncc4)cc3)c(N)c2c1C ?
OUT: 20.1

* * *

- Assay details: In vitro clearance, rat
- Assay type: in vitro ADME
- Assay context: rat, liver microsomes
Reported metric: CLint scaled (mL/min/kg)
Give bare numbers, in mL/min/kg.

Quick request: CLint scaled for each listed item, please.
1. Cc1nnc2sc(C(=O)NCc3ccc(-c4cccnc4F)cc3)c(N)c2c1C [8p]
2. Cc1nnc2sc(C(=O)NCc3ccc(-c4ccnc(F)c4)cc3)c(N)c2c1C [8k]
3. Cc1nnc2sc(C(=O)NCc3ccc(-c4ccncc4)cc3)c(N)c2c1C [8f]
4. Cc1nnc2sc(C(=O)NCc3ccc(-c4ccc(F)nc4)cc3)c(N)c2c1C [8m]

OUT:
[134, 57.1, 415, 81.6]

* * *

- Assay details: IV and PO pharmacokinetics in dog
- Assay type: in vivo
- Assay context: plasma, iv
Reported metric: clearance (mL/min/kg)
Numbers only, in mL/min/kg.

IN: Would you kindly share the measured clearance for Cc1nnc2sc(C(=O)NCc3ccc(-c4cccnc4F)cc3)c(N)c2c1C [8p] ?
OUT: 5.5

* * *

- Assay details: IV and PO pharmacokinetics in cynomolgus monkey
- Type: in vivo
- Assay context: plasma, iv
Reported metric: clearance (mL/min/kg)
Give bare numbers, in mL/min/kg.

IN: Would you kindly share the measured clearance for Cc1nnc2sc(C(=O)NCc3ccc(-c4cccnc4F)cc3)c(N)c2c1C ?
OUT: 9.3

* * *

- Assay details: In vitro clearance, human
- Format: in vitro ADME
- Assay context: in vitro predicted
Please respond with reported CLHEP, human for every item in the list.

The cases that follow already have their CLHEP, human on record.
IN: Would you kindly share the measured CLHEP, human for Cc1nnc2sc(C(=O)NCc3ccc(-c4ccncc4)cc3)c(N)c2c1C [8f] ?
OUT: 15.2 mL/min/kg

IN: Would you kindly share the measured CLHEP, human for Cc1nnc2sc(C(=O)NCc3ccc(-c4ccc(F)nc4)cc3)c(N)c2c1C [8m] ?
OUT: 17.1 mL/min/kg

IN: Would you kindly share the measured CLHEP, human for Cc1nnc2sc(C(=O)NCc3ccc(-c4ccnc(F)c4)cc3)c(N)c2c1C [8k] ?
OUT: 17.8 mL/min/kg

Kindly consider the entry below.
IN: Would you kindly share the measured CLHEP, human for Cc1nnc2sc(C(=O)NCc3ccc(-c4cccnc4F)cc3)c(N)c2c1C [8p] ?
OUT: 14.8 mL/min/kg
